B1: DnaJ homolog subfamily C member 2, residues 451 to 503; numbered along this chain, Q99543 (parent)
chain: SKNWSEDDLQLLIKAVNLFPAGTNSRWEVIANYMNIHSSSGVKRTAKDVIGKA

- Variants of: B1
- Assay remarks: abundance fitness (aPCA) (normalised: wild type 0, dead -1); higher = more abundant; growth selection in yeast, the domain comes from the species named
- Condition label: Homo sapiens
Rule: abundance fitness under -0.1 gives Criterion not met, otherwise Criterion met.

As a guide, the following entries are already answered.
{"Variant descriptor": "L18E", "Category": "Criterion not met"}
{"Variant descriptor": "V16R", "Category": "Criterion met"}
{"Variant descriptor": "A46G", "Category": "Criterion not met"}
{"Variant descriptor": "L9W", "Category": "Criterion met"}
{"Variant descriptor": "W4A", "Category": "Criterion not met"}

stdin: Does K14F have a reported abundance fitness of at least -0.1?
stdout: Criterion met

stdin: Same again, this time with N35Q
stdout: Criterion not met

stdin: Same again, this time with K47F
stdout: Criterion not met

The measurements presented in this section are drawn from the Human Domainome abundance scans (Beltran et al. 2025).
